Recorded values, source patent US20230235054A1.

EXPERIMENTAL TARGET: T1, cynoNectin4-mFc (cyno, UniProt A0A2K5WES1 32-349)
T1 construct: Immobilized on the SPR chip; also called cyanoNectin4; not shown: mFc (mouse Fc)
T1 sequence: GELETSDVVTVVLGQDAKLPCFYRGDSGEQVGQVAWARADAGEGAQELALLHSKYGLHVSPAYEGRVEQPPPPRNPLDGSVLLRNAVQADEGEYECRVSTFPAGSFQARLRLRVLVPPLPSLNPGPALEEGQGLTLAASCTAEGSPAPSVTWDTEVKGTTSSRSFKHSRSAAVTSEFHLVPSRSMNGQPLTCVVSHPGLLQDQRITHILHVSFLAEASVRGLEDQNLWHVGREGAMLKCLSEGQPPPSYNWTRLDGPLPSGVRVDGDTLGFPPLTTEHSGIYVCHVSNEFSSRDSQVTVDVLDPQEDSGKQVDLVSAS
METHOD SUMMARY: SPR, cynoNectin4-mFc immobilized, pH 7.4
ASSAY READOUT: koff
Answer with the number, then the unit.

Prompt line: koff lookup needed for BAP-143-06-24-16 (antibody, V domains shown, Used as a conjugate with a linker payload (CAB ADC)) VH: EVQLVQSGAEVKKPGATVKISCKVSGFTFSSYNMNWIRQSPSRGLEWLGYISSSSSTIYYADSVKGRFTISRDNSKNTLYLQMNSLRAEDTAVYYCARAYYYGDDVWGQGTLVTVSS VL: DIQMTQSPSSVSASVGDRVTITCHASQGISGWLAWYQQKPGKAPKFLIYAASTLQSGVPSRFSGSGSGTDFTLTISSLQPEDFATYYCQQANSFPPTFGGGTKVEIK , thanks.
Response line: 8.26e-05 s⁻¹

Prompt line: koff lookup needed for BAP-143-00-01 (antibody, V domains shown, Used as a conjugate with a linker payload (CAB ADC)) VH: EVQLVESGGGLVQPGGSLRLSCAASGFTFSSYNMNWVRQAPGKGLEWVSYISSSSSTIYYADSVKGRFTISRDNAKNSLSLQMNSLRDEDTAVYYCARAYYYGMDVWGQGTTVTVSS VL: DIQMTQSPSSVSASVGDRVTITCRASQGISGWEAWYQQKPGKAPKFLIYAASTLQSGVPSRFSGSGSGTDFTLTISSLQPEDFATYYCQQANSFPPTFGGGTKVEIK , thanks.
Response line: 0.000781 s⁻¹

Prompt line: koff lookup needed for BAP-143-07-03-12 (antibody, V domains shown, Used as a conjugate with a linker payload (CAB ADC)) VH: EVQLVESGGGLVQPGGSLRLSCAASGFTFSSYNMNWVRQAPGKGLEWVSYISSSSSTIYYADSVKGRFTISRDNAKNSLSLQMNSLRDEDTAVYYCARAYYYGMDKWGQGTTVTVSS VL: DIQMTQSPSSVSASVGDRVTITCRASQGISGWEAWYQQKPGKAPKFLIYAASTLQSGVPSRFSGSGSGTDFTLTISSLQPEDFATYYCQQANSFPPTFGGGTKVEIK , thanks.
Response line: 0.000651 s⁻¹

Prompt line: koff lookup needed for BAP-143-06-33-16 (antibody, V domains shown, Used as a conjugate with a linker payload (CAB ADC)) VH: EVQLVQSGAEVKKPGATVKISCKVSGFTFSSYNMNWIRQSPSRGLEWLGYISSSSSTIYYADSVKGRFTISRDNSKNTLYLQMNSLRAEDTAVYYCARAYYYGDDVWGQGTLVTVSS VL: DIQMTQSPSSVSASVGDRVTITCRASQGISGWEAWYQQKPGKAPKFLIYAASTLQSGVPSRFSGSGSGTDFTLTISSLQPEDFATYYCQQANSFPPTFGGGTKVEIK , thanks.
Response line: 0.000175 s⁻¹
